Taken from patent US20250320281A1.

# system: HIV-1 Env of isolate MGRM-A-002 (pseudovirus) (HIV-1)
# method_summary: cell-based or functional assay

{"columns": ["binder", "IC50 (µg/mL), pseudovirus neutralization"],
 "data": [
  ["PGT-126 (5141_B17) (antibody, V domains shown) VH: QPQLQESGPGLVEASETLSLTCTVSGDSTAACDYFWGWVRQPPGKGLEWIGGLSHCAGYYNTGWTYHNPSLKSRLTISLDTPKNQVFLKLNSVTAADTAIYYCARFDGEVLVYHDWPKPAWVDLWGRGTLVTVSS VL: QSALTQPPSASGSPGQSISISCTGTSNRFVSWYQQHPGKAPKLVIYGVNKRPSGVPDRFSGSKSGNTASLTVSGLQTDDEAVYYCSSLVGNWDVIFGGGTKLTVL", "0.015 µg/mL"]
]}
